# System: XIP peptide (Xip251-270) binding
# ASSAY_INFO: XIP fragment 251-270 binding compounds – biochemical, small-molecule microarray, fluorescence 635/667 nm, 0.1 µg/mL protein, primary screen (AID 1182)
# STUDY_CONDITIONS: fluorescent protein binding, 635 nm, higher = more signal, called active from +8 up or from −8 down
For each record, write down the corresponding composite z-score.
API doc: respond with a numeric literal and nothing else, no unit.

Request: Lab note: need composite z-score for CCCCCCc1nc(Cc2cc(OC)c(OC)c(OC)c2)cc2c1[Si](C(C)C)(C(C)C)OC2 on XIP peptide (Xip251-270) binding, anyone have it?
Result: 0.181

Request: Lab note: need composite z-score for COCCOC(=O)N1C(=O)[C@@]2(c3ccccc31)[C@H](C(=O)NC[C@H](O)c1ccccc1)[C@H]1C(=O)O[C@H](c3ccccc3)[C@H](c3ccccc3)N1[C@@H]2c1ccc(O)cc1 on XIP peptide (Xip251-270) binding, anyone have it?
Result: 0.26

Request: Lab note: need composite z-score for CCCC=C(CCC)[C@@H](NP(=O)(c1ccccc1)c1ccccc1)c1ccc(-c2ccccc2)cc1 on XIP peptide (Xip251-270) binding, anyone have it?
Result: 0.356

Request: Lab note: need composite z-score for C=CCNC(=O)[C@@H]1[C@H]2C(=O)O[C@H](c3ccccc3)[C@H](c3ccccc3)N2[C@H](c2ccccc2OCCO)[C@@]12C(=O)Nc1ccc(C#CCC(C(=O)OC)C(=O)OC)cc12 on XIP peptide (Xip251-270) binding, anyone have it?
Result: 1.56

Request: Lab note: need composite z-score for CCCCNC(=O)c1ccc(C#CC(C)(C)C)c(OC(C)=O)c1 on XIP peptide (Xip251-270) binding, anyone have it?
Result: 0.0374

Request: Lab note: need composite z-score for O=C1O[C@@H](c2ccccc2)[C@@H](c2ccccc2)N2[C@@H](c3ccc(O)cc3)[C@]3(C(=O)Nc4ccc(C#CCCO)cc43)[C@@H](C(=O)N3CCN(c4ncccn4)CC3)[C@H]12 on XIP peptide (Xip251-270) binding, anyone have it?
Result: 0.678

Request: Lab note: need composite z-score for COC(=O)[C@@]1(Cc2ccc(F)cc2)[C@H]2c3cc(C(=O)N(C)C)n(Cc4ccc(OC(F)(F)F)cc4)c3C[C@H]2CN1C(=O)c1ccccc1 on XIP peptide (Xip251-270) binding, anyone have it?
Result: 0.342

* * *

For each record, write down the corresponding composite z-score.
# TARGET_OR_SYSTEM: Dihydroorotate dehydrogenase (quinone), mitochondrial (Plasmodium falciparum (isolate 3D7))
# ASSAY_INFO: inhibition of P. falciparum DHODH – biochemical, C-terminal His tag, absorbance 600 nm, primary screen (AID 1175);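 note: recombinant parasite enzyme with a five histidine tag at its C terminus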
# STUDY_CONDITIONS: PfDHODH enzyme, DCIP absorbance 600 nm; higher = more signal, called active from +8 up or from −8 down
The source made the active and inactive calls.

Request: Can you look up the measured composite z-score of COCCOC(=O)N1C(=O)[C@@]2(c3cc(C#CC4(O)CCCCCC4)ccc31)[C@H](C(=O)N1CCc3cc(OC)c(OC)cc3C1)[C@H]1C(=O)O[C@H](c3ccccc3)[C@H](c3ccccc3)N1[C@@H]2c1ccc(OCCO)cc1 for me?
Result: -0.494 (inactive)

Request: Can you look up the measured composite z-score of COc1cc2c(cc1O)C(c1cccs1)N(Cc1cc3c(cc1Br)OCO3)CC2 (stereo not drawn) for me?
Result: -1.88 (inactive)

Request: Can you look up the measured composite z-score of N[C@@H](Cc1ccccc1)C(=O)NCc1cn(Cc2ccccc2)nn1 for me?
Result: -0.777 (inactive)

Request: Can you look up the measured composite z-score of COCCCNC(=O)[C@@]1(Sc2ccc(C)cc2)CC(=O)N(C2Cc3ccccc3C2)[C@@H]1c1ccc(CO)cc1 for me?
Result: -0.277 (inactive)

Request: Can you look up the measured composite z-score of CC1CC/C=C\[C@H]2OC34C=CCN(C(C)C)C(=O)[C@H]3N(CCO)C(=O)[C@@H]4C2C(=O)O1 (stereo partly drawn) for me?
Result: 0.705 (inactive)

Request: Can you look up the measured composite z-score of Cc1ccc(S[C@]2(C(=O)NCc3ccccc3)CC(=O)N(C3CCCCC3)[C@@H]2c2ccc(CO)cc2I)cc1 for me?
Result: -0.11 (inactive)

Request: Can you look up the measured composite z-score of CC1=C2[C@@H](CCc3ccccc3)OB(O)C[C@@H]2[C@@H]2C(=O)N(C)C(=O)[C@@H]2C1 for me?
Result: -0.628 (inactive)

Request: Can you look up the measured composite z-score of COc1cc(OC)c(C(O)C2C=CC3C(=O)N(Cc4ccccc4)C(=O)C3N2n2cnnc2)cc1Br (stereo not drawn) for me?
Result: -0.552 (inactive)
